Catalogue of Kd values
Biological target: Quadruplex DNA
Test: Binding affinity to c-MYC G4- quadruplex DNA Pu22 (unknown origin) assessed as binding constant by SPR analysis
Assay type: nucleic-acid assay

# Compound, Units Of Measure, Kd
measured = [
    ("CCn1c2ccccc2c2cc(-c3nc(-c4ccc(N5CCN(C)CC5)cc4)c(-c4ccc(N5CCN(Cc6cn(CCOCCO[C@@H]7O[C@H](COC(C)=O)[C@@H](OC(C)=O)[C@H](OC(C)=O)[C@H]7OC(C)=O)nn6)CC5)cc4)[nH]3)ccc21 (single isomer, unassigned)", "nM", 1000),
    ("CCn1c2ccccc2c2cc(-c3nc(-c4ccc(N5CCN(C)CC5)cc4)c(-c4ccc(N5CCN(Cc6cn(CCOCCO)nn6)CC5)cc4)[nH]3)ccc21", "nM", 1200),
    ("CCn1c2ccccc2c2cc(-c3nc(-c4ccc(N5CCN(C)CC5)cc4)c(-c4ccc(N5CCN(Cc6cn(CCOCCO[C@@H]7O[C@H](CO)[C@@H](O)[C@H](O)[C@H]7O)nn6)CC5)cc4)[nH]3)ccc21 (single isomer, unassigned)", "nM", 1700),
    ("CCn1c2ccccc2c2cc(-c3nc(-c4ccc(N5CCN(C)CC5)cc4)c(-c4ccc(N5CCN(C)CC5)cc4)n3-c3ccc(OCCOCCOC(C)=O)cc3)ccc21", "nM", 4000),
    ("CCn1c2ccccc2c2cc(-c3nc(-c4ccc(N5CCN(C)CC5)cc4)c(-c4ccc(N5CCN(C)CC5)cc4)n3-c3ccc(OCCOCCO[C@@H]4O[C@H](CO)[C@@H](O)[C@H](O)[C@H]4N)cc3)ccc21 (single isomer, unassigned)", "nM", 800),
    ("CCn1c2ccccc2c2cc(-c3nc(-c4ccc(N5CCN(C)CC5)cc4)c(-c4ccc(N5CCN(C)CC5)cc4)n3-c3ccc(O[C@@H]4O[C@H](CO)[C@@H](O)[C@H](O)[C@H]4O)cc3)ccc21", "nM", 1800),
    ("CCn1c2ccccc2c2cc(-c3nc(-c4ccc(N5CCN(C)CC5)cc4)c(-c4ccc(N5CCN(C)CC5)cc4)n3-c3ccc(OCCOCCO[C@@H]4O[C@H](CO)[C@H](O)[C@H](O)[C@H]4O)cc3)ccc21 (single isomer, unassigned)", "nM", 2000),
    ("CCn1c2ccccc2c2cc(-c3nc(-c4ccc(N5CCN(C)CC5)cc4)c(-c4ccc(N5CCN(Cc6cn([C@@H]7O[C@H](CO)[C@H](O)[C@H](O)[C@H]7O)nn6)CC5)cc4)[nH]3)ccc21 (single isomer, unassigned)", "nM", 1600),
    ("CCn1c2ccccc2c2cc(-c3nc(-c4ccc(N5CCN(C)CC5)cc4)c(-c4ccc(N5CCN(C)CC5)cc4)n3CCOCCO[C@@H]3O[C@H](CO)[C@@H](O)[C@H](O)[C@H]3O)ccc21 (single isomer, unassigned)", "nM", 3500),
    ("CCn1c2ccccc2c2cc(-c3nc(-c4ccc(N5CCN(C)CC5)cc4)c(-c4ccc(N5CCN(C)CC5)cc4)n3-c3ccc(OCCOCCOC4(C)O[C@H]5O[C@H](CO)[C@@H](O)[C@H](O)[C@H]5O4)cc3)ccc21 (single isomer, unassigned)", "nM", 3800),
    ("CCn1c2ccccc2c2cc(-c3nc(-c4ccc(N5CCN(C)CC5)cc4)c(-c4ccc(N5CCN(C)CC5)cc4)n3-c3ccc(OCCOCCOC4(C)O[C@H]5O[C@H](COC(C)=O)[C@@H](OC(C)=O)[C@H](OC(C)=O)[C@H]5O4)cc3)ccc21 (single isomer, unassigned)", "nM", 1800),
    ("CCn1c2ccccc2c2cc(-c3nc(-c4ccc(N5CCN(C)CC5)cc4)c(-c4ccc(N5CCN(C)CC5)cc4)n3-c3ccc(OCCCO[C@@H]4O[C@H](CO)[C@@H](O)[C@H](O)[C@H]4O)cc3)ccc21 (single isomer, unassigned)", "nM", 1800),
    ("COc1ccc(-n2c(-c3ccc4c(c3)c3ccccc3n4Cc3cn(CCOCCO[C@@H]4O[C@H](CO)[C@@H](O)[C@H](O)[C@H]4O)nn3)nc(-c3ccc(N4CCN(C)CC4)cc3)c2-c2ccc(N3CCN(C)CC3)cc2)cc1 (single isomer, unassigned)", "nM", 2200),
    ("CCn1c2ccccc2c2cc(-c3nc(-c4ccc(N5CCN(C)CC5)cc4)c(-c4ccc(N5CCN(C)CC5)cc4)n3-c3ccc(OCCOCCO)cc3)ccc21", "nM", 2600),
    ("CCn1c2ccccc2c2cc(-c3nc(-c4ccc(N5CCN(C)CC5)cc4)c(-c4ccc(N5CCN(C)CC5)cc4)n3-c3ccc(OCCOCCO[C@@H]4O[C@H](CO)[C@@H](O)[C@H](O)[C@H]4NC(=O)C(F)(F)F)cc3)ccc21 (single isomer, unassigned)", "nM", 4100),
    ("CCn1c2ccccc2c2cc(-c3nc(-c4ccc(N5CCN(C)CC5)cc4)c(-c4ccc(N5CCN(C)CC5)cc4)n3-c3ccc(OCCCO[C@@H]4O[C@H](CO)[C@H](O)[C@H](O)[C@H]4O)cc3)ccc21 (single isomer, unassigned)", "nM", 1400),
    ("CCn1c2ccccc2c2cc(-c3nc(-c4ccc(N5CCN(C)CC5)cc4)c(-c4ccc(N5CCN(Cc6cn([C@@H]7O[C@H](CO)[C@@H](O)[C@H](O)[C@H]7O)nn6)CC5)cc4)[nH]3)ccc21 (single isomer, unassigned)", "nM", 1900),
]
